Target: MMP-16 (Homo sapiens, UniProt P51512)
Sequence (P51512 120-607): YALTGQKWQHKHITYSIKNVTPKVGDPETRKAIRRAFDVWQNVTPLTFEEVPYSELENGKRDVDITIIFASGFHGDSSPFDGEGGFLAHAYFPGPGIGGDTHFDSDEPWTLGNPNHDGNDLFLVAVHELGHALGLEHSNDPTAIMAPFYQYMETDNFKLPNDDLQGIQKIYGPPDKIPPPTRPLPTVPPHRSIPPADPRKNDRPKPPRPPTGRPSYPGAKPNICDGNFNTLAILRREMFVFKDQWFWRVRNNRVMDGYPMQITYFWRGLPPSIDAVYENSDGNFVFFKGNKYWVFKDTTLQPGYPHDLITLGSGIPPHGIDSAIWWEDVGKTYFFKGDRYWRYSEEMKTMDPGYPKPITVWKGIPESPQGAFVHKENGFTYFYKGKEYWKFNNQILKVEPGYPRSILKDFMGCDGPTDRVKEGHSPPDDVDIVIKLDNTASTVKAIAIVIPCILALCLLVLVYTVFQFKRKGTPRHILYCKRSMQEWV
Experiment: Cross-reactivity of Fabs and IgGs with MMP-16 (Example 8)
Assay type: biochemical
Design: key: X: Does not inhibit MMP-16 at [I] = 100 nM level
Conditions: Fab 100 nM; 5 nM MMP16; 30 minutes at 30° C.; 10 μM substrate
measurement.kind: MMP-16 (cross-reactivity, class symbol)

molecule: M0038-F01: human antibody (Fab, IgG) that binds and inhibits MMP-14; HC SEQ ID NO: 156, LC SEQ ID NO: 157 (antibody, V domains shown, Synthetically generated peptide) VH: EVQLLESGGGLVQPGGSLRLSCAASGFTFSLYSMNWVRQAPGKGLEWVSSIYSSGGSTLYADSVKGRFTISRDNSKNTLYLQMNSLRAEDTAVYYCARGRAFDIWGQGTMVTVSS VL: QDIQMTQSPSSLSAFVGDKVTITCRASQSVGTYLNWYQQKAGKAPELLIYATSNLRSGVPSRFSGSGSGTDFTLTINTLQPEDFATYYCQQSYSIPRFTFGPGTKVDIK
measurement.kind: MMP-16 (cross-reactivity, class symbol)
measured: X
--
molecule: M0033-H07: human antibody (Fab, IgG) that binds and inhibits MMP-14; HC SEQ ID NO: 148, LC SEQ ID NO: 149 (antibody, V domains shown, Synthetically generated peptide) VH: EVQLLESGGGLVQPGGSLRLSCAASGFTFSVYGMVWVRQAPGKGLEWVSVISSSGGSTWYADSVKGRFTISRDNSKNTLYLQMNSLRAEDTALYYCARPFSRRYGVFDYWGQGTLVTVSS VL: QDIQMTQSPSSLSASVGDRVTITCRASQGIRNFLAWYQQKPGKVPKLLVFGASALQSGVPSRFSGSGSGTDFTLTISGLQPEDVATYYCQKYNGVPLTFGGGTKVEIK
measurement.kind: MMP-16 (cross-reactivity, class symbol)
measured: X
--
molecule: M0040-A11: human antibody (Fab, IgG) that binds and inhibits MMP-14; HC SEQ ID NO: 164, LC SEQ ID NO: 165 (antibody, V domains shown, Synthetically generated peptide) VH: EVQLLESGGGLVQPGGSLRLSCAASGFTFSHYVMFWVRQAPGKGLEWVSRIVPSGGATMYADSVKGRFTISRDNSKNTLYLQMNSLRAEDTAVYYCARDRPLYDSSGYVDYWGQGTLVTVSS VL: QSALTQPPSASGSPGQSVTISCTGTSSDVGAYNYVSWYQQHPDKAPKLIIYNVNERPSGVPDRFSGSKSGNTASLTVSGLQAEDEADYYCTSYAGSNKIGVSGTGTKVTVL
measurement.kind: MMP-16 (cross-reactivity, class symbol)
measured: X
